// Mitogen-activated protein kinase 6 (Homo sapiens) ΔTm records
experimental_readout: ΔTm (°C)

> print(dat)
                                 chem.smiles  number
 1  C[C@@H](N)[C@H]1CC[C@H](C(=O)Nc2ccncc2)CC1    -0.1
 2          Cc1c2ccncc2c(C)c2c1[nH]c1ccccc12     1.5
 3      O=C1Nc2ccccc2/C1=C1/Nc2ccccc2/C1=N\O     0.4
 4  Nc1nccc(-c2c(-c3ccc(F)cc3)ncn2C2CCNCC2)n1     0.3
 5   NC1=N/C(=C2/CCNC(=O)c3[nH]ccc32)C(=O)N1     0.3
 6       CCOc1cc2ncnc(Nc3cccc(Br)c3)c2cc1OCC     0.2
 7   CC(C)(C)n1nc(-c2ccc(Cl)cc2)c2c(N)ncnc21    -0.2
 8  O=Nc1c(-c2c(O)[nH]c3ccccc23)[nH]c2ccccc12     0.1
 9  O=c1c(O)c(-c2ccc(O)c(O)c2)oc2cc(O)cc(O)c12     0.8
10  Nc1nc(Nc2ccc(S(N)(=O)=O)cc2)nn1C(=S)Nc1c(F)cccc1F     2.1
11               Cc1cc2ncc(-c3ccccc3)nc2cc1C       1

---

Record set of ΔTm for target or system Myotonin-protein kinase (Homo sapiens) (UniProt Q09013).
experimental_readout: ΔTm (°C)

> print(dat)
                                    molecule                              study.target  units.label  number
 1  Nc1nccc(-c2c(-c3ccc(F)cc3)ncn2C2CCNCC2)n1  Myotonin-protein kinase (Homo sapiens) (UniProt Q09013)           °C     0.6
 2  C[S+]([O-])c1ccc(CSc2nc(-c3ccc(F)cc3)c(-c3ccncc3)[nH]2)cc1 (stereo not given)  Myotonin-protein kinase (Homo sapiens) (UniProt Q09013)           °C     0.5
 3  CSc1nc(-c2ccc(F)cc2)c(-c2ccnc(NC(C)c3ccccc3)c2)[nH]1 (racemic)  Myotonin-protein kinase (Homo sapiens) (UniProt Q09013)           °C     1.3
 4  C[C@@H]1C[C@H]2O[C@@H]2/C=C\C=C\C(=O)Cc2c(Cl)c(O)cc(O)c2C(=O)O1 [RADICICOL]  Myotonin-protein kinase (Homo sapiens) (UniProt Q09013)           °C    -0.9
 5  N#C/C(=C1/Nc2ccccc2S1)c1ccnc(NCCc2cccnc2)n1  Myotonin-protein kinase (Homo sapiens) (UniProt Q09013)           °C       6
 6     CN1CCc2[nH]c(=S)c(C#N)c(-c3cccs3)c2C1  Myotonin-protein kinase (Homo sapiens) (UniProt Q09013)           °C     7.8
 7  CC(=O)O/N=C1/C(=C2/C(=O)Nc3cc(Br)ccc32)Nc2ccccc21 [6-BROMOINDIRUBIN-3'-ACETOXIME]  Myotonin-protein kinase (Homo sapiens) (UniProt Q09013)           °C     0.7
 8  Cc1cncc2cccc(S(=O)(=O)N3CCCNC[C@@H]3C)c12  Myotonin-protein kinase (Homo sapiens) (UniProt Q09013)           °C     0.4
 9               Cc1cc2ncc(-c3ccccc3)nc2cc1C  Myotonin-protein kinase (Homo sapiens) (UniProt Q09013)           °C     1.2
10  O=C1Cc2c([nH]c3ccc([N+](=O)[O-])cc23)-c2ccccc2N1  Myotonin-protein kinase (Homo sapiens) (UniProt Q09013)           °C     1.9

---

Molecular target: Serine/threonine-protein kinase 17A (Homo sapiens) (UniProt Q9UEE5)
Sequence (whole entry): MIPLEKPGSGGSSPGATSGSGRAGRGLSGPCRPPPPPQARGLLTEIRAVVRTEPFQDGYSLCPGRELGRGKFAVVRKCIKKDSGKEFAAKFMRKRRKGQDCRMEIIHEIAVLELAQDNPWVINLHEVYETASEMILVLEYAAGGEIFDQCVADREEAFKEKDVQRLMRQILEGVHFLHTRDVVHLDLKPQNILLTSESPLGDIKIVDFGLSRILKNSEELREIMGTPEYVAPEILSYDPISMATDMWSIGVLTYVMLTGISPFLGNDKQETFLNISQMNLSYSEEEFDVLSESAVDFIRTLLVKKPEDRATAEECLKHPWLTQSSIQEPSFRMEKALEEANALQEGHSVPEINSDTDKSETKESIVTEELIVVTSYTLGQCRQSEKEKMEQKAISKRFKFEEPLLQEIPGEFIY
Assign classes using reported ΔTm values and the ranges low value (below 0.5 °C), medium value (0.5 °C to below 1 °C), high value (1 °C or more), please.

> print(dat)
                                    compound  assigned.category
 1  O=C1Nc2cc(Br)ccc2/C1=C1/Nc2ccccc2/C1=N\O         high value
 2                 O=C(O)/C=C/c1cc(CO)ccc1CO       medium value
 3  Nc1nccc(-c2c(-c3ccc(F)cc3)ncn2C2CCNCC2)n1          low value
 4  COc1ccc2c(c[n+](C)c3c4cc5c(cc4ccc23)OCO5)c1OC [CHELERYTHRINE CHLORIDE]          low value
 5  N#C/C(=C(/N)Sc1ccc(N)cc1)c1ccccc1C(F)(F)F          low value
 6  COc1cc(C[C@H]2C(=O)OC[C@@H]2Cc2ccc(OC)c(OC)c2)ccc1O         high value
 7  O=C1NC(=O)c2c1c1c3ccccc3[nH]c1n1cncc21 [ISOGRANULATIMIDE]         high value
 8                   Nc1n[nH]c2nc3ccccc3nc12         high value
 9                 N#CC(C#N)=Cc1ccc(O)c(O)c1       medium value
10         O=c1sn(Cc2ccccc2)c(=S)n1Cc1ccccc1          low value
11       CCOc1cc2ncnc(Nc3cccc(Br)c3)c2cc1OCC         high value
12   NC1=N/C(=C2/CCNC(=O)c3[nH]ccc32)C(=O)N1         high value
13          O=C(O)Cc1ccc(O)c([N+](=O)[O-])c1          low value
14  COc1cc2c(cc1OC)-c1n[nH]c(Nc3cccc(F)c3)c1C2         high value
15  C#Cc1cccc(Nc2ncnc3cc(OCCOC)c(OCCOC)cc23)c1          low value
16  Cc1ccc(NC(=O)c2cccc(N(C)C)c2)cc1NC(=O)c1ccc(O)cc1       medium value
17  CCOc1cc(/C=C(\C#N)C(N)=O)cc(CSc2ccccc2)c1O       medium value
18        CCCCc1c(-c2ccc(O)cc2)[nH]c2nccnc12         high value
19  CCCNC(=O)Nc1ccc(Oc2ncnc3cc(OC)c(OC)cc23)cc1Cl         high value
20  Nc1nc(Nc2ccc(S(N)(=O)=O)cc2)nn1C(=S)Nc1c(F)cccc1F         high value

---

Target: Dual specificity protein kinase CLK2 (Homo sapiens) (UniProt P49760)
Sequence (P49760 whole entry, looked up): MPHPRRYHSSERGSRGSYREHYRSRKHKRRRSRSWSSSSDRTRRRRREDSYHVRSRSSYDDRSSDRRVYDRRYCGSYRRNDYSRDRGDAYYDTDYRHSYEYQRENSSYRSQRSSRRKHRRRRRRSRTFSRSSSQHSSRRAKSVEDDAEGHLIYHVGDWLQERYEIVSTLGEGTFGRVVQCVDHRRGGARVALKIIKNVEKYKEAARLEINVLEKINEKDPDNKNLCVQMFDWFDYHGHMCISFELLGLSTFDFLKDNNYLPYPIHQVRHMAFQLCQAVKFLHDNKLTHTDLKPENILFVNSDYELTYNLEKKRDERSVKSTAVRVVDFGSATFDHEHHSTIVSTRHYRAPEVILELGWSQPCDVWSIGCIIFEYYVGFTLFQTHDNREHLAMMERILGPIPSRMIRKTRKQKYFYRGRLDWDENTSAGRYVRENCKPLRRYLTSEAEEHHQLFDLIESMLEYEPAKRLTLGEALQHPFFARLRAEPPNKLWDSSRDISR
Rule: ΔTm below 1 °C gives true. Equal to or above 1 °C gives false.

> print(dat)
                                 chem.smiles  assigned.category
 1         Oc1cc(O)cc(/C=C/c2ccc(O)c(O)c2)c1               true
 2  COC1=C2C[C@@H](C)C[C@H](OC)[C@H](O)[C@@H](C)/C=C(\C)[C@H](OC(N)=O)[C@@H](OC)/C=C\C=C(/C)C(=O)NC(=CC1=O)C2=O               true
 3  CN(C)S(=O)(=O)c1ccc2c(c1)/C(=C/c1cc3c([nH]1)CCCC3)C(=O)N2              false
 4             O=C1Nc2ccccc2/C1=C\c1ccc[nH]1              false
 5  Nc1cccc(-c2cc3c(Oc4cccc(O)c4)ncnc3[nH]2)c1               true
 6           Cc1cc(C=C2C(=O)C=CC2=O)cc(C)c1O               true
 7           CCN1/C(=C/C(C)=O)Sc2ccc(OC)cc21              false
 8         O=c1sn(Cc2ccccc2)c(=S)n1Cc1ccccc1               true
 9  COc1cc(O)c2c(c1)oc(=O)c1c3cc(O)c(O)cc3oc21              false
10  Cc1cncc2cccc(S(=O)(=O)N3CCCNC[C@@H]3C)c12              false

---

Listed here: compounds with reported ΔTm for 3-phosphoinositide-dependent protein kinase 1 (Homo sapiens) (UniProt O15530).
experimental_readout: ΔTm (°C)

> print(dat)
                                chem.smiles  number
1  CCOC(=O)c1c(C)[nH]c(/C=C2\C(=O)Nc3ccccc32)c1C     0.2
2      O=S(=O)(c1cccc2c(Cl)cccc12)N1CCCNCC1     0.1
3  Cc1cncc2cccc(S(=O)(=O)N3CCCNC[C@@H]3C)c12    -0.2
4  O=c1c2ccccc2[nH]c(=S)n1CCN1CCC(=C(c2ccc(F)cc2)c2ccc(F)cc2)CC1     0.6
5    CC(C)n1cnc2c(NCc3ccccc3O)nc(NCCCO)nc21     0.1
6  CC(C)[C@H](CO)Nc1nc(Nc2cc(N)cc(Cl)c2)c2ncn(C(C)C)c2n1     1.4
7         Oc1cc(O)cc(/C=C/c2ccc(O)c(O)c2)c1    -0.4
8  O=C1NC(=O)c2c1c1c3ccccc3n3c1c1c2c2ccccc2n1C1CCC3O1    -0.1
9  COc1cc(/C=C/C(=O)CC(=O)/C=C/c2ccc(O)c(OC)c2)ccc1O     0.2

Values compiled from ChEMBL document CHEMBL1145498.
